Target: S. aureus DNA gyrase (Staphylococcus aureus)
Construct: purified by the F. Blanche [25] from a crude extract of S. aureus; endogenous in cells
Sequence (P0A0K8 whole entry): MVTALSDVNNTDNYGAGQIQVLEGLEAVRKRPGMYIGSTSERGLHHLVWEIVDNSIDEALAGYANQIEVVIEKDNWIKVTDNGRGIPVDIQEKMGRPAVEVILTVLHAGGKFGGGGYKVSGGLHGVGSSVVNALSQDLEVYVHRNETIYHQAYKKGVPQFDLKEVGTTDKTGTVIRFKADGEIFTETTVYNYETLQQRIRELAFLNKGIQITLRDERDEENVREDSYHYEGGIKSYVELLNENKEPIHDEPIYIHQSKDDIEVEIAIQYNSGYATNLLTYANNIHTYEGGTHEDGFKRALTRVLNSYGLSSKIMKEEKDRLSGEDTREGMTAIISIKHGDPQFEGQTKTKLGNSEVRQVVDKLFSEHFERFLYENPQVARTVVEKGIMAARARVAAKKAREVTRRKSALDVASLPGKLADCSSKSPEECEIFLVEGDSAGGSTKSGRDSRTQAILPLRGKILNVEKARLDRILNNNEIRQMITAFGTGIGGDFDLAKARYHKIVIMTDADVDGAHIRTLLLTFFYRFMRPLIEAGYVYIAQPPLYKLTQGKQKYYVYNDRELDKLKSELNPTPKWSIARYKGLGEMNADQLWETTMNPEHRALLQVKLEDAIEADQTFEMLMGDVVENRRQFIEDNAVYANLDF
Sequence (P20831 whole entry partner): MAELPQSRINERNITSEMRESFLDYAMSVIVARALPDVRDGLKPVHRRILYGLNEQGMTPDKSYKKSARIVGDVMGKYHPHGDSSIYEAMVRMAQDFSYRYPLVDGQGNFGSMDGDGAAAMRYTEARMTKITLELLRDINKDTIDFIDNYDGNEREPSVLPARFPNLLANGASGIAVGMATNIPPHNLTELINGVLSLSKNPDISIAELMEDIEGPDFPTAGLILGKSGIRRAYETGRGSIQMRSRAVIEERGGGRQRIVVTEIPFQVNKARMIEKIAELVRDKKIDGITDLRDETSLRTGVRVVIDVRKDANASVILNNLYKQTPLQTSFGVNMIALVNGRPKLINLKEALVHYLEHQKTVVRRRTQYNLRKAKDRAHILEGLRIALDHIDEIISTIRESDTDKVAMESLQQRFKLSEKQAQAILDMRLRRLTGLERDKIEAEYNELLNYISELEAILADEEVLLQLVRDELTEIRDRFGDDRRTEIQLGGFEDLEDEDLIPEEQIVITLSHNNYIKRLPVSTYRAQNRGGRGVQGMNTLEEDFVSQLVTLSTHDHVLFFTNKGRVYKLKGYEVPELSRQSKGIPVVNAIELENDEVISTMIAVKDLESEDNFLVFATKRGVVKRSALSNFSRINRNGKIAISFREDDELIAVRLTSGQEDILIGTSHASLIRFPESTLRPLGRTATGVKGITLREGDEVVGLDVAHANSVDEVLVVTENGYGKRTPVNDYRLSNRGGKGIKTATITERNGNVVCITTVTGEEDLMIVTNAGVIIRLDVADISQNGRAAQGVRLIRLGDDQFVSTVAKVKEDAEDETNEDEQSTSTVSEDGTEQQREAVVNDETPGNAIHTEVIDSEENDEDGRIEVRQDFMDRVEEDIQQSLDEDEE
Assay: biochemical
Conditions: enzyme purified from S. aureus, supercoiling
property: IC50

// solved cases for IC50 follow
compound	IC50
COc1cccc(C(=O)NNC(=O)c2cc(-c3ccc(Br)cc3)n[nH]2)c1 [3k]	0.361 µM
Cc1cccc(C(=O)NNC(=O)c2cc(-c3ccc(Br)cc3)n[nH]2)c1 [3j]	0.326 µM
Cc1ccc(C(=O)NNC(=O)c2cc(-c3ccc(Br)cc3)n[nH]2)cc1 [3d]	3.76 µM
Cc1ccccc1C(=O)NNC(=O)c1cc(-c2ccc(Br)cc2)n[nH]1 [3p]	13 µM
COc1ccc(C(=O)NNC(=O)c2cc(-c3ccc(Br)cc3)n[nH]2)cc1 [3e]	8.19 µM

### Prompt Give its IC50 value. Item: O=C(NNC(=O)c1cc(-c2ccc(Br)cc2)n[nH]1)c1ccccc1 [3s]
### Response 8.44 µM
